Cited source: patent US7074789B2

target desc: Itk (Homo sapiens, UniProt Q08881)
Construct: Kinases are expressed as either kinase domains or full length constructs; made in house
Sequence (Q08881 whole entry, species assumed, the tested form may be a part): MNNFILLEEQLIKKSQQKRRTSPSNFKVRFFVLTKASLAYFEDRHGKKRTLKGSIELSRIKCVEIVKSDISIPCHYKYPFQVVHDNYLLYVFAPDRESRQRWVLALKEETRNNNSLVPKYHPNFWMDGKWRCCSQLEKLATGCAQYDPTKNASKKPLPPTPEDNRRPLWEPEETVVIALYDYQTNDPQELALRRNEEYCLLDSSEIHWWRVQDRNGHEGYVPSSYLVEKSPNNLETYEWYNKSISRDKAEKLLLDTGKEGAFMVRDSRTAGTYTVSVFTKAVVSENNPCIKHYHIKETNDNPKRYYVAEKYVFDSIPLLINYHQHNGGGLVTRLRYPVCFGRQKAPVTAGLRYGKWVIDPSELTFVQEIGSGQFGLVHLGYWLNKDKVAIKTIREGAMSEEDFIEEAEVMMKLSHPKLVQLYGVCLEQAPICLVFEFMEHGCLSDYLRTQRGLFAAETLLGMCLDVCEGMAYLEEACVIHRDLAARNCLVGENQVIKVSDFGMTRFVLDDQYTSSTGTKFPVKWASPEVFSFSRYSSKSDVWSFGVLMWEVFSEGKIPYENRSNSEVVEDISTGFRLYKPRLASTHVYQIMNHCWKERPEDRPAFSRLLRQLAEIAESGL
assay details: Kinase inhibition assay (33P transfer), Itk
Type: biochemical
condition summary: Table 3; read-out: Itk-1
measure: IC50

// worked examples, IC50 included
- test smiles: "COC(=O)c1ccc(Nc2ncnc(Nc3cc(-c4ccco4)n[nH]3)n2)cc1"
  IC50: "> 11.9 µM"
- test smiles: "COc1cc(Nc2ncnc(N(c3ccc(Cl)cc3)c3nc4ccccc4[nH]3)n2)cc(OC)c1OC"
  IC50: "> 8.93 µM"
- test smiles: "COc1cc(Nc2ncnc(Nc3cccc(O)c3)n2)cc(OC)c1OC"
  IC50: "1.08 to 6.5 µM"

Now turn to the next molecule.
Task item: Let me know recorded IC50 for "COc1cc(Nc2ncnc(Nc3ccc(OCc4ccccc4)cc3)n2)cc(OC)c1OC" , thanks.
Reply: > 9.79 µM

* * *

target desc: Zap-70 (Homo sapiens)
Construct: Kinases are expressed as either kinase domains or full length constructs; made in house
Sequence (P43403 whole entry, species assumed, the tested form may be a part): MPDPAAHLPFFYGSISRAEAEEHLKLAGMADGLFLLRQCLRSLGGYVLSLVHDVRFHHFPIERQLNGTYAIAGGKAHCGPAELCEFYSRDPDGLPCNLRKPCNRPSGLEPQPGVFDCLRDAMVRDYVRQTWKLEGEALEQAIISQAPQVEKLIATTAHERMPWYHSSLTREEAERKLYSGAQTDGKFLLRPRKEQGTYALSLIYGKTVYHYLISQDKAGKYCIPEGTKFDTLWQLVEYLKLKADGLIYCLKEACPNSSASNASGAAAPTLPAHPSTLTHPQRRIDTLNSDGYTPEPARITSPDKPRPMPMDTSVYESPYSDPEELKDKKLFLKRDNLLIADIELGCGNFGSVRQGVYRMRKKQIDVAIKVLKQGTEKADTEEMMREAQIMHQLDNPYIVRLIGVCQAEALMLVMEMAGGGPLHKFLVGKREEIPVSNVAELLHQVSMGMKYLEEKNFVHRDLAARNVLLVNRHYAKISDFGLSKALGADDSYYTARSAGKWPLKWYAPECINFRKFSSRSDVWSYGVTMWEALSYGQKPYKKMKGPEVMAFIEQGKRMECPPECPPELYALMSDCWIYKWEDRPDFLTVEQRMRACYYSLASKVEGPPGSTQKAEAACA
assay details: Kinase inhibition assay (33P transfer), Zap-70
Assay type: biochemical
condition summary: Table 3; read-out: Zap-1
Recorded IC50, one value per entry.

- test smiles: "COc1cc(Nc2ncnc(-n3c(NCc4ccncc4)nc4ccccc43)n2)cc(OC)c1OC"
  observed measurement: "> 9.29 µM"
- test smiles: "COc1cc(Nc2ncnc(Nc3cc(OC)c(OC)c(OC)c3)n2)cc(OC)c1OC"
  observed measurement: "> 10.1 µM"
- test smiles: "COc1ccc(CNc2ncnc(Nc3cc(OC)c(OC)c(OC)c3)n2)cc1"
  observed measurement: "> 11.3 µM"
- test smiles: "CNc1nc2ccccc2n1-c1ncnc(Nc2cc(OC)c(OC)c(OC)c2)n1"
  observed measurement: "> 11 µM"

Task item: Using known records, supply IC50 for "O=c1[nH]c2ccccc2n1-c1ncnc(Nc2ccc(F)c(Cl)c2)n1"
Reply: > 12.6 µM

Task item: Supply recorded IC50 for "COc1cc(Nc2ncnc(Nc3ccc4cn[nH]c4c3)n2)cc(OC)c1OC" here.
Reply: > 11.4 µM

Task item: Check the records and state IC50 for "CCOC(=O)Cc1ccc(Nc2ncnc(Nc3cc(OC)c(OC)c(OC)c3)n2)cc1"
Reply: > 10.2 µM

Task item: Please report the measured IC50 for "NC(=O)c1ccc(Nc2ncnc(-c3ccccc3)n2)cc1"
Reply: > 15.4 µM

Task item: Let me know recorded IC50 for "COc1ncnc(Nc2cc(OC)c(OC)c(OC)c2)n1" , thanks.
Reply: > 15.4 µM

* * *

As shown below, each of these compounds has a reported pIC50 value.
target desc: AKT (Homo sapiens)
Construct: Kinases are expressed as either kinase domains or full length constructs; made in house
Sequence (Q9Y243 whole entry, the tested form may be a part): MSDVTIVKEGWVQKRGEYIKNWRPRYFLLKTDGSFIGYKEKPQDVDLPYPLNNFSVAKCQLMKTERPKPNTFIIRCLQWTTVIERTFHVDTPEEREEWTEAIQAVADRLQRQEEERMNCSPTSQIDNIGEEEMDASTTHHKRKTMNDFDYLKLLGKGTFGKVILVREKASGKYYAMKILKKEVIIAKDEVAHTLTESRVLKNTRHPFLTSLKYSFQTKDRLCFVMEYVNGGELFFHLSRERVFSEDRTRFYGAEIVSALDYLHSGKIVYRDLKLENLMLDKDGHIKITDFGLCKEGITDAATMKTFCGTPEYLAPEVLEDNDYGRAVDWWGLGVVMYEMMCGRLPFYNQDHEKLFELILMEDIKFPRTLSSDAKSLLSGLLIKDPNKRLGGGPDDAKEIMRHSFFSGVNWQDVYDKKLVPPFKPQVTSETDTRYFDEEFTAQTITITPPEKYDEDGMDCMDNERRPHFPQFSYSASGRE
assay details: Kinase inhibition assay (33P transfer), AKT
Type: biochemical
condition summary: Table 2, class symbols A-E; read-out: AKT3-1
pIC50: −log10 of the molar value.

- test smiles: "COc1ccc(Nc2ncnc(Nc3cc(Cl)cc(Cl)c3)n2)cc1OC"
  pIC50: "< 4.94"
- test smiles: "COc1ccc(Nc2ncnc(N(C)c3ccc(C)cc3)n2)cc1OC"
  pIC50: "< 4.89"
- test smiles: "Fc1cccc(CNc2nc3ccccc3n2-c2ncnc(Nc3cccc(Cn4ccnn4)c3)n2)c1"
  pIC50: "< 5.04"
- test smiles: "COc1cc(Nc2ncnc(N3CCCc4c(Cl)cccc43)n2)cc(OC)c1OC"
  pIC50: "< 4.98"
- test smiles: "COC(=O)c1ccc(-c2cc(Nc3ncnc(NCc4cccs4)n3)[nH]n2)cc1"
  pIC50: "< 4.96"
- test smiles: "C=CCN(c1cccc(Cl)c1)c1ncnc(Nc2cc(OC)cc(OC)c2)n1"
  pIC50: "< 4.95"

Task item: Assign pIC50 to the following record: "c1ccc(Cn2ncc3cc(Nc4ncnc(NCCN5CCCC5)n4)ccc32)cc1"
Reply: < 4.96

Task item: Complete the entry with pIC50 for "Brc1cccc(Nc2ncnc(Nc3cccc(Cn4ccnn4)c3)n2)c1"
Reply: < 4.97

Task item: Identify pIC50 associated with the compound "COC(=O)c1ccc(-c2cc(Nc3ncnc(NC4=NC(=O)CS4)n3)[nH]n2)cc1"
Reply: < 4.96

* * *

target desc: PDGFRB (Homo sapiens)
Construct: Kinases are expressed as either kinase domains or full length constructs; made in house
Sequence (P09619 33-1106, species assumed): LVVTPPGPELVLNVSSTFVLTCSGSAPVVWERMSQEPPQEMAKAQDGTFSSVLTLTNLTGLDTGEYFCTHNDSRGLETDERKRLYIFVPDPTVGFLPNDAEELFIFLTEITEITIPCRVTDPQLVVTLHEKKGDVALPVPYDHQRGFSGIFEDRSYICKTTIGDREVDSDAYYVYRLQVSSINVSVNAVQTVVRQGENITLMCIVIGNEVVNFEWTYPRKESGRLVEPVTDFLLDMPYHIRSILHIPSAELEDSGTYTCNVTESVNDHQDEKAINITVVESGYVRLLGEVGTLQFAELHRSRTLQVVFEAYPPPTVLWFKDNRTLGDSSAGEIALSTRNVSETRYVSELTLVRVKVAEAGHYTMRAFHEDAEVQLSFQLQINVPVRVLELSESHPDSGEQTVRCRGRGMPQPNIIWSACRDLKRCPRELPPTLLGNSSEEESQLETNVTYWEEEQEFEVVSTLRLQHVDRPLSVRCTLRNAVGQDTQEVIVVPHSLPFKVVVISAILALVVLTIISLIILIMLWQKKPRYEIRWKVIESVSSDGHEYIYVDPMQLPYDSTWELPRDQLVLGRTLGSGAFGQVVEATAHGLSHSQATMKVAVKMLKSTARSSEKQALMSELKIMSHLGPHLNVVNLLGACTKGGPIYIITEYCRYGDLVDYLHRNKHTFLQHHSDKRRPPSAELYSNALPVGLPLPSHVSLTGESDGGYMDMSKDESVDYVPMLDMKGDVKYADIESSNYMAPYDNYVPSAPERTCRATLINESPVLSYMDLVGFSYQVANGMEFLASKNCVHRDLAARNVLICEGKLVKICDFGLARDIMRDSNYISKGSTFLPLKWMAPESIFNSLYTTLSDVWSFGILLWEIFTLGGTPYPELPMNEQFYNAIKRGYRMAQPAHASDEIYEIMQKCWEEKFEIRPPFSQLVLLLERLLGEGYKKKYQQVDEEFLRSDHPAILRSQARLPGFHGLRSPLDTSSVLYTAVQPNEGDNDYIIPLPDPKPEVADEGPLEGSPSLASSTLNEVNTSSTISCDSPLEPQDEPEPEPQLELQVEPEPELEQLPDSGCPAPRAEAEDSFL
assay details: Kinase inhibition assay (33P transfer), PDGFRB
Assay type: biochemical
condition summary: read-out: PDGFRB-1
pIC50: −log10 of the molar value.
measure: pIC50

Some compounds with known pIC50 results, for comparison:
- compound: "c1ccc(Cn2ncc3cc(Nc4ncnc(Nc5cc(-c6ccccc6)[nH]n5)n4)ccc32)cc1"
  observed measurement: "5.12 to 5.28"
- compound: "CCCN(CC1CC1)c1ncnc(Nc2cc(OC)c(OC)c(OC)c2)n1"
  observed measurement: "5.19 to 5.97"
- compound: "CCc1ccc(Nc2nc3ccccc3n2-c2ncnc(Nc3cc(OC)c(OC)c(OC)c3)n2)cc1"
  observed measurement: "5.04 to 5.15"
- compound: "COc1ccc(Nc2nc3ccccc3n2-c2ncnc(Nc3cc(OC)c(OC)c(OC)c3)n2)c(C)c1"
  observed measurement: "5.33 to 6.11"
- compound: "COc1ccc(CNc2ncnc(Nc3ccc4c(cnn4Cc4ccccc4)c3)n2)cc1OC"
  observed measurement: "< 5.02"
- compound: "c1cc(Nc2ncnc(Nc3cc(-c4ccco4)[nH]n3)n2)cc(-c2cnco2)c1"
  observed measurement: "> 5.98"

Task item: Please give measured pIC50 of the following entry: "COC(=O)Cc1cccc(Nc2ncnc(-n3c(NCc4ccccc4)nc4ccccc43)n2)c1"
Reply: > 6.07

Task item: Specify reported pIC50 for the compound shown: "COc1cc(Nc2ncnc(-c3cccnc3Nc3ccc(C(F)(F)F)cc3)n2)cc(OC)c1OC"
Reply: < 5.04

Task item: Complete the entry with pIC50 for COc1cc(Nc2ncnc(-c3cccnc3NCC(C)c3ccccc3)n2)cc(OC)c1OC (stereo not drawn)
Reply: 5.29 to 6.07

* * *

The following compounds are shown together with reported pIC50 values.
target desc: EGFR (Homo sapiens, UniProt P00533)
Construct: Kinases are expressed as either kinase domains or full length constructs; made in house
Sequence (P00533 25-1210, species assumed): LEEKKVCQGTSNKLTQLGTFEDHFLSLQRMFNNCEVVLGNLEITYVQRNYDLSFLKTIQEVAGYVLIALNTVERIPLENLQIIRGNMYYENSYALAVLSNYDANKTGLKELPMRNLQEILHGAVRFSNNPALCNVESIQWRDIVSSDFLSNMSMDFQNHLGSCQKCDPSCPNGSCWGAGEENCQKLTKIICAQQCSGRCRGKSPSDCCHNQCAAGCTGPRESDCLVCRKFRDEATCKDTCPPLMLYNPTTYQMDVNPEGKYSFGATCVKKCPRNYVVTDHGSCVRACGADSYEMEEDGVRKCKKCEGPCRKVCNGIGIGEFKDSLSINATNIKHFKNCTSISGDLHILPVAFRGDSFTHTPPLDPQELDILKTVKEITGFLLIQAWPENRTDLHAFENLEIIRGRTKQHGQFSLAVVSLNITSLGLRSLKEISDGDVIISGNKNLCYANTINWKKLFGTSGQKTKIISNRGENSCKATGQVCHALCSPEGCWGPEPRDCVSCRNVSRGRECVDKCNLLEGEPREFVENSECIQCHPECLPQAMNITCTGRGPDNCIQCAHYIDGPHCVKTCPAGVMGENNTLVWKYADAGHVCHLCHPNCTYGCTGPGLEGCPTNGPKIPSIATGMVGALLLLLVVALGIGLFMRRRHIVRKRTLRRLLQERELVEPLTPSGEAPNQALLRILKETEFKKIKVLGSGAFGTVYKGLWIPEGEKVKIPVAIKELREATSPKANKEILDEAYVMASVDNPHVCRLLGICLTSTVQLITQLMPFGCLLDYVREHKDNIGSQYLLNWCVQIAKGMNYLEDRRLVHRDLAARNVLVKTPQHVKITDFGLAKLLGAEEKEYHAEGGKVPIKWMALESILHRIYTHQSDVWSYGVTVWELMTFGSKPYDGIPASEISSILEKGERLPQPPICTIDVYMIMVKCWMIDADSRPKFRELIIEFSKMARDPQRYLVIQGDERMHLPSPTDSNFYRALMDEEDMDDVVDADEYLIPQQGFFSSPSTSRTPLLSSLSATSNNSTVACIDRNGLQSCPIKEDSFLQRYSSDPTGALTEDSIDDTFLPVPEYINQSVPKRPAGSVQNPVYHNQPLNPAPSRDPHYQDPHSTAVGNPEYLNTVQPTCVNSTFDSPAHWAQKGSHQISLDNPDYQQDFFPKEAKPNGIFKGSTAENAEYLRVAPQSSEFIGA
assay details: Kinase inhibition assay (33P transfer), EGFR
Format: biochemical
condition summary: Table 2, kinase inhibition class; read-out: EGFR-1
pIC50: −log10 of the molar value.

Some solved cases for reference:
- compound: "COc1cc(Nc2ncnc(Nc3ccc(Oc4ccccc4)cc3)n2)cc(OC)c1OC"
  observed measurement: "> 6.05"
- compound: "COc1cc(Nc2ncnc(Nc3cccc(F)c3)n2)cc(OC)c1OC"
  observed measurement: "> 5.97"
- compound: "O=C(O)Cc1cccc(Nc2ncnc(-n3c(NCc4ccccn4)nc4ccccc43)n2)c1"
  observed measurement: "< 5.00"

Now look at this entry.
Task item: // fetch pIC50; item: "O=c1[nH]c2ccccc2n1-c1ncnc(Nc2cccc3ncccc23)n1" ; system: EGFR (Homo sapiens, UniProt P00533)
Reply: < 4.90

* * *

target desc: Lck (Homo sapiens)
Construct: Kinases are expressed as either kinase domains or full length constructs; made in house
Sequence (P06239 whole entry, species assumed, the tested form may be a part): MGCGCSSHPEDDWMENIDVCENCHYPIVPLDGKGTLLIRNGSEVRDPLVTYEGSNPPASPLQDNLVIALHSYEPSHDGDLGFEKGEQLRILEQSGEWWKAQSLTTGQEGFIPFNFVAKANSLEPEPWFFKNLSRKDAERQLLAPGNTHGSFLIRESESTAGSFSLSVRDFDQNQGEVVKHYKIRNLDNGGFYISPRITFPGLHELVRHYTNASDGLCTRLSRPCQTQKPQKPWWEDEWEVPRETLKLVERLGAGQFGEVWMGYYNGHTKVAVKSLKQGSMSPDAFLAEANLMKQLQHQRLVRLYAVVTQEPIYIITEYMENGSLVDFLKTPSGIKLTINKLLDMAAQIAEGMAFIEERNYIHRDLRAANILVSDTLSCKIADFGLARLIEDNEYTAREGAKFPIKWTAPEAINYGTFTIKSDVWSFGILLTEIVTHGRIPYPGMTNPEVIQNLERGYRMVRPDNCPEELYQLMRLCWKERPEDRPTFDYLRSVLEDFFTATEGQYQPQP
assay details: Kinase inhibition assay (33P transfer), Lck
Assay type: biochemical
condition summary: Table 3, class symbols; read-out: Lck-1
# reported IC50; entries follow

Known IC50 results, listed for orientation:
- test smiles: "c1ccc(Cn2ncc3cc(Nc4ncnc(Nc5cccc(Cn6ccnn6)c5)n4)ccc32)cc1"
  target desc: "Lck (Homo sapiens)"
  observed measurement: "0.843 to 5.06 µM"
- test smiles: "COc1ccc(CNc2ncnc(Nc3cc(-c4ccco4)n[nH]3)n2)cc1"
  target desc: "Lck (Homo sapiens)"
  observed measurement: "> 12.4 µM"
- test smiles: "COc1cc(Nc2ncnc(-c3cccnc3N[C@@H](C)c3ccccc3)n2)cc(OC)c1OC"
  target desc: "Lck (Homo sapiens)"
  observed measurement: "< 0.872 µM"
- test smiles: "COc1cccc(Nc2ncccc2-c2ncnc(Nc3cc(OC)c(OC)c(OC)c3)n2)c1"
  target desc: "Lck (Homo sapiens)"
  observed measurement: "> 9.77 µM"
- test smiles: "Brc1cccc(Nc2ncnc(Nc3cccc(Cn4ccnn4)c3)n2)c1"
  target desc: "Lck (Homo sapiens)"
  observed measurement: "5.67 to 8.27 µM"
- test smiles: "Clc1cccc(Nc2ncnc(Nc3ccc4[nH]ncc4c3)n2)c1"
  target desc: "Lck (Homo sapiens)"
  observed measurement: "1.18 to 7.11 µM"
- test smiles: "Cc1cccc(Nc2ncnc(N(C)c3ccc4c(cnn4Cc4ccccc4)c3)n2)c1"
  target desc: "Lck (Homo sapiens)"
  observed measurement: "5.69 to 8.3 µM"
- test smiles: "COc1ccc(Nc2ncnc(N(C)CCc3ccccn3)n2)cc1OC"
  target desc: "Lck (Homo sapiens)"
  observed measurement: "> 12.3 µM"

Task item: State its IC50 for this compound: "Fc1ccc(CNc2ncccc2-c2ncnc(Nc3ccc(N4CCOCC4)cc3)n2)cc1"
Reply: > 9.84 µM

Task item: Supply IC50 value. Item: "COc1cc(Nc2ncnc(-c3cccnc3Nc3cccc(C(F)(F)F)c3)n2)cc(OC)c1OC"
Reply: > 9.03 µM
